Overview of recorded MIC grade, A. FUMIGATUS, YAG media for various compounds
Tested on: Aspergillus fumigatus
Experiment: Minimum inhibitory concentration, YAG medium
Assay type: cell-based
Conditions: banded MIC grade
assay_readout: MIC grade, A. FUMIGATUS, YAG media

1) CCCC(C)OCCC1=NN=C(N)SC1 (stereo not shown)	2 (2: 1-5 mg/L)
2) NC1=NN=C(CCOc2ccc(-c3ccccc3)cc2)CS1	1 (1: ≥5 mg/L)
3) NC1=NN=C(c2ccc(Cl)c(Cl)c2)CS1	1 (1: ≥5 mg/L)
4) NC1=NN=C(CCCCOCc2ccc(Cl)cc2Cl)CS1	2 (2: 1-5 mg/L)
5) NC1=NN=C(CCCCOCc2cccc(Br)c2)CS1	4 (4: <0.2 mg/L)
6) COC(=O)CC1=NN=C(N)SC1	2 (2: 1-5 mg/L)
7) NC1=NN=C(CCCCOCc2ccc(Cl)c(F)c2)CS1	4 (4: <0.2 mg/L)
8) CCC(=O)OCC1=NN=C(N)SC1	3 (3: 0.2-1 mg/L)
9) CCCCOCCC1=CNN=C(N)S1	2 (2: 1-5 mg/L)
10) CCCCc1ccc(OCCCCCC2=NN=C(N)SC2)cc1	1 (1: ≥5 mg/L)
11) CCc1cccc(OCCCCCC2=NN=C(N)SC2)c1	4 (4: <0.2 mg/L)
12) NC1=NN=C(CCCCOCCCc2ccc(F)cc2F)CS1	3 (3: 0.2-1 mg/L)
13) NC1=NN=C(CCCCOCc2cccc(CCc3ccccc3)c2)CS1	2 (2: 1-5 mg/L)

----------
System: Aspergillus flavus
Assay: Minimum inhibitory concentration, YAG medium
Assay type: cell-based
Conditions: banded MIC grade
assay_readout: MIC grade, A. FLAVUS, YAG media

1) COCCCCCCCC1=NN=C(N)SC1	4 (4: <0.2 mg/L)
2) Cc1cc(COCCCCC2=NN=C(N)SC2)ccc1F	4 (4: <0.2 mg/L)
3) NC1=NN=C(CCCCOCc2ccc(Br)cc2)CS1	4 (4: <0.2 mg/L)
4) COCCCCCC1=NN=C(N)SC1	4 (4: <0.2 mg/L)
5) Cc1ccc(C2=NN=C(N)SC2)cc1	3 (3: 0.2-1 mg/L)
6) NC1=NN=C(CCCCOCc2ccccc2C(F)(F)F)CS1	2 (2: 1-5 mg/L)
7) CCCCOCCC1=NN=C(N)SC1	3 (3: 0.2-1 mg/L)

----------
Test system: Aspergillus niger
Assay: Minimum inhibitory concentration, YAG medium
Assay type: cell-based
Settings: banded MIC grade
assay_readout: MIC grade, A. NIGER, YAG media

1) NC1=NN=C(CCCCOCc2ccccc2C(F)(F)F)CS1	3 (3: 0.2-1 mg/L)
2) NC1=NN=C(CCOc2ccc(Br)cc2)CS1	4 (4: <0.2 mg/L)
3) NC1=NN=C(CCCCOCc2ccccc2CCc2ccccc2)CS1	1 (1: ≥5 mg/L)
4) COCC1=NN=C(N)SC1	2 (2: 1-5 mg/L)
5) Cc1cc(C)cc(C2=NN=C(N)SC2)c1	2 (2: 1-5 mg/L)
6) NC1=NN=C(CCCCCCOc2ccccc2)CS1	4 (4: <0.2 mg/L)
7) NC1=NN=C(c2cccc(Cl)c2)CS1	1 (1: ≥5 mg/L)
8) CCOC(=O)CCCCCC1=NN=C(N)SC1	4 (4: <0.2 mg/L)
9) NC1=NN=C(CCCCCOc2ccc(F)cc2)CS1	4 (4: <0.2 mg/L)
10) CCCCOc1ccc(C2=NN=C(N)SC2)cc1	3 (3: 0.2-1 mg/L)
11) COCCOCCC1=NN=C(N)SC1	3 (3: 0.2-1 mg/L)
12) NC1=NN=C(c2ccc3ccccc3c2)CS1	1 (1: ≥5 mg/L)
13) Cc1cccc(C2=NN=C(N)SC2)c1	2 (2: 1-5 mg/L)
14) CCCC(C)OCCC1=NN=C(N)SC1 (centres unmarked)	4 (4: <0.2 mg/L)

----------
System: Aspergillus niger
assay_readout: MIC

1. CCCCOc1ccc(C2=CSC(N)=NN2C)cc1	< 0.2 µg/mL
2. CN1N=C(N)SC=C1c1ccc(Cl)c(Cl)c1	1 to 5 µg/mL
3. COCCCCCN1N=C(N)SC=C1C	≥ 5 µg/mL
4. CCOC(=O)c1ccc(C2=CSC(N)=NN2C)cc1	0.2 to 1 µg/mL
5. CN1N=C(N)SC=C1c1ccc(C#N)cc1	< 0.2 µg/mL
6. COc1ccc(C2=CSC(N)=NN2C)cc1	< 0.2 µg/mL
7. CN1N=C(N)SC=C1c1cc2ccccc2o1	1 to 5 µg/mL
8. Cc1ccc(C2=CSC(N)=NN2C)cc1	0.2 to 1 µg/mL
9. CN1N=C(N)SC=C1c1ccc(Cl)cc1	< 0.2 µg/mL

----------
Test system: A. fumigatus 210
Assay: Minimum inhibitory concentration, YAG medium
Assay type: cell-based, Aspergillus fumigatus
Conditions: banded MIC grade
assay_readout: MIC grade, A. FUMIGATUS 210, YAG media

1. NC1=NN=C(CCCCCCOc2ccccc2)CS1	4 (4: <0.2 mg/L)
2. NC1=NN=C(CCCCOCc2cccc(C(F)(F)F)c2)CS1	3 (3: 0.2-1 mg/L)
3. NC1=NN=C(CCCCCOCc2ccccc2)CS1	4 (4: <0.2 mg/L)
4. N#Cc1ccc(C2=NN=C(N)SC2)cc1	2 (2: 1-5 mg/L)
5. Cc1cccc(C2=NN=C(N)SC2)c1	1 (1: ≥5 mg/L)
6. Cc1cc(COCCCCC2=NN=C(N)SC2)ccc1F	4 (4: <0.2 mg/L)
7. CCOC(=O)c1ccc(C2=CSC(N)=NN2)cc1	4 (4: <0.2 mg/L)
8. NC1=NN=C(CCCCCOc2ccc(F)cc2)CS1	4 (4: <0.2 mg/L)
9. Cc1ccc(C2=NN=C(N)SC2)cc1	3 (3: 0.2-1 mg/L)
10. COc1ccc(C2=NN=C(N)SC2)cc1	2 (2: 1-5 mg/L)
11. CCc1cccc(COCCCCC2=NN=C(N)SC2)c1	3 (3: 0.2-1 mg/L)
12. CCc1ccc(OCCCCCC2=NN=C(N)SC2)cc1	3 (3: 0.2-1 mg/L)
13. NC1=NN=C(CCCCCCCOc2ccccc2)CS1	3 (3: 0.2-1 mg/L)

----------
Tested on: C. albicans
Test: Minimum inhibitory concentration, RPMI medium
Format: cell-based
Settings: banded MIC grade
Overview of recorded MIC grade, C. ALBICANS, RPMI media for various molecules
assay_readout: MIC grade, C. ALBICANS, RPMI media

1. NC1=NN=C(CCCCSCc2ccc(Cl)cc2)CS1	3 (3: 1-5 mg/L)
2. COC(=O)CC1=NN=C(N)SC1	1 (1: ≥20 mg/L)
3. NC1=NN=C(CCOc2ccccc2)CS1	3 (3: 1-5 mg/L)
4. NC1=NN=C(CCCCOCc2ccc(Br)cc2)CS1	4 (4: <1 mg/L)
5. NC1=NN=C(CCCCCc2ccccn2)CS1	2 (2: 5-20 mg/L)
6. COCCCCCCC1=NN=C(N)SC1	4 (4: <1 mg/L)
7. Cc1ccc(C2=NN=C(N)SC2)cc1	1 (1: ≥20 mg/L)
8. CC(=O)OCCCCC1=NN=C(N)SC1	3 (3: 1-5 mg/L)
9. CCCCCCCC1=CSC(N)=NN1	3 (3: 1-5 mg/L)
10. CCc1cccc(OCCCCCC2=NN=C(N)SC2)c1	4 (4: <1 mg/L)
11. NC1=NN=C(CCCCOCc2cccc(CCc3ccccc3)c2)CS1	2 (2: 5-20 mg/L)
12. CCCCc1ccc(COCCCCC2=NN=C(N)SC2)cc1	2 (2: 5-20 mg/L)
13. COc1ccc(C2=NN=C(N)SC2)cc1	1 (1: ≥20 mg/L)

----------
System: Aspergillus flavus
Assay: Minimum inhibitory concentration, YAG medium
Type: cell-based
Conditions: banded MIC grade
assay_readout: MIC grade, A. FLAVUS, YAG media

1) CCCCOC(=O)CC1=NN=C(N)SC1	2 (2: 1-5 mg/L)
2) NC1=NN=C(CCCCOCc2ccc(Cl)cc2)CS1	4 (4: <0.2 mg/L)
3) Cc1cc(C)cc(C2=NN=C(N)SC2)c1	1 (1: ≥5 mg/L)
4) NC1=NN=C(CCCCOCc2cc(F)cc(F)c2)CS1	4 (4: <0.2 mg/L)
5) COCC1=NN=C(N)SC1	2 (2: 1-5 mg/L)
6) NC1=NN=C(CCCCOCc2cc(F)ccc2F)CS1	4 (4: <0.2 mg/L)
7) NC1=NN=C(CCCCCc2ccccn2)CS1	3 (3: 0.2-1 mg/L)
8) NC1=NN=C(CCOCc2ccc(-c3ccccc3)cc2)CS1	3 (3: 0.2-1 mg/L)
9) NC1=NN=C(CCCCCCOc2ccccc2)CS1	4 (4: <0.2 mg/L)
10) CCCCOc1cccc(C2=NN=C(N)SC2)c1	1 (1: ≥5 mg/L)
11) COCCC1=NN=C(N)SC1	3 (3: 0.2-1 mg/L)
12) NC1=NN=C(CCOCCOc2ccccc2)CS1	4 (4: <0.2 mg/L)
13) Cc1ccc(COCCC2=NN=C(N)SC2)cc1	3 (3: 0.2-1 mg/L)
14) NC1=NN=C(CCCOc2ccccc2)CS1	4 (4: <0.2 mg/L)

Sourced from patent US20180201592A1
